Tested on: Vero cells
Format: cell-based
Recorded conditions: green monkey, 96 h
Can you tell me [TC50] Vero cells assays for the items I'm about to list?
One number for each entry, in µM.

# Structure smiles string, Value unit, [TC50] Vero cells assays
records = [
    ("Brc1ccc(CCNc2ncnc3c2nc(-c2ccccc2)n3CCc2ccc(Br)cc2)cc1", "µM", 909.20),
]

## Task // lookup [TC50] Vero cells assays for c1ccc(CCNc2ncnc3c2ncn3CCc2ccccc2)cc1
## Result 39.26

###

Tested on: T. cruzi Tulahuen parasites
Recorded conditions: Vero TC50 / anti-T. cruzi IC50
Result type: SI Vero cells assays (TC50/IC50)

Some compounds with known SI Vero cells assays (TC50/IC50) results, for comparison:
# Compound, Result type, Observed measurement
rows = [
    ("c1ccc(CCNc2ncnc3c2ncn3CCc2ccccc2)cc1", "SI Vero cells assays (TC50/IC50)", 2.59),
    ("Cc1nc2c(NCCc3ccccc3)ncnc2n1CCc1ccccc1", "SI Vero cells assays (TC50/IC50)", 3.52),
    ("O=C(Cn1ccnc1[N+](=O)[O-])NCc1ccccc1 [BNZ, benznidazole, reference compound]", "SI Vero cells assays (TC50/IC50)", 81.36),
    ("Cc1nc2c(NCc3ccc(Cl)cc3)ncnc2n1Cc1ccc(Cl)cc1", "SI Vero cells assays (TC50/IC50)", 5.17),
    ("Clc1ccccc1CNc1ncnc2c1nc(-c1ccccc1)n2Cc1ccccc1Cl", "SI Vero cells assays (TC50/IC50)", "> 10,000"),
]

Quick batch: SI Vero cells assays (TC50/IC50) for everything below.
1. Cc1nc2c(NCc3ccccc3)ncnc2n1Cc1ccccc1
2. Cc1nc2c(NCc3cccc(Cl)c3)ncnc2n1Cc1cccc(Cl)c1

## Result
4.75
11.65
